Please respond with reported pIC50 for every item in the list.
Tested on: HL-1
Assay: cardiomyocyte survival under oxidative or metabolic stress – cell-based, panel, H9c2 and HL-1, H2O2, 2-deoxyglucose, ATP luminescence, SAR follow-up (AID 651642)
Settings: H9c2/HL-1 cardiomyocyte 2-deoxyglucose damage, run 3, with 2-deoxyglucose
// pIC50: -log10(molar conc.)

[ask] Fill in pIC50 for record CCOC(=O)c1cccc(NC(=O)CNC(=O)c2cc(-c3cc(OC)c(OC)c(OC)c3)nc3ccc(C)cc23)c1
[reply] 5.54

[ask] Fill in pIC50 for record CCNC(=O)c1cccc(NC(=O)c2cc(-c3cc(OC)c(OC)c(OC)c3)nc3ccccc23)c1
[reply] 4.89

[ask] Fill in pIC50 for record COc1cc(-c2cc(C(=O)Nc3cccc(C(=O)NCc4ccccc4)c3)c3ccccc3n2)cc(OC)c1OC
[reply] 5.73

[ask] Fill in pIC50 for record COc1ccc2nc(-c3cc(OC)c(OC)c(OC)c3)cc(C(=O)NCC(=O)Nc3ccc(C(C)=O)cc3)c2c1
[reply] 5.33

[ask] Fill in pIC50 for record COc1ccc2c(c1OC)C(=O)N1c3ccccc3C(=O)N(Cc3cccc(Cl)c3Cl)C21 (centres undefined)
[reply] 5.70

[ask] Fill in pIC50 for record COc1ccc2c(c1OC)C(=O)N1c3ccccc3C(=O)N(Cc3ccccc3F)C21 (centres undefined)
[reply] 5.07

[ask] Fill in pIC50 for record COc1ccc2nc(-c3cc(OC)c(OC)c(OC)c3)cc(C(=O)NCC(=O)Nc3cccc(C(C)=O)c3)c2c1
[reply] 5.46

[ask] Fill in pIC50 for record COc1cc(-c2cc(C(=O)NCC(=O)Nc3cccc(C(C)=O)c3)c3ccccc3n2)cc(OC)c1OC
[reply] 5.05

###

Tested on: HL-1
Assay: cardiomyocyte survival under oxidative or metabolic stress – cell-based, panel, H9c2 and HL-1, H2O2, 2-deoxyglucose, ATP luminescence, SAR follow-up (AID 651642)
Details: H9c2/HL-1 cardiomyocyte H2O2 oxidative damage, run 2, with H2O2
Property Label: pIC50
// pIC50: -log10(molar conc.)

[ask] Fill in pIC50 for record COc1ccc(NC(=O)CNC(=O)c2cc(-c3cc(OC)c(OC)c(OC)c3)nc3ccccc23)cc1
[reply] 5.05

[ask] Fill in pIC50 for record CCOC(=O)c1cccc(NC(=O)c2cc(-c3cc(OC)c(OC)c(OC)c3)nc3ccc(OC)cc23)c1
[reply] 5.35

[ask] Fill in pIC50 for record COc1cc(-c2cc(C(=O)NCC(=O)Nc3cccc(C(C)=O)c3)c3cc(Br)ccc3n2)cc(OC)c1OC
[reply] 5.43

[ask] Fill in pIC50 for record COc1cc(-c2cc(C(=O)NCC(=O)Nc3cccc(C(C)=O)c3)c3cc(F)ccc3n2)cc(OC)c1OC
[reply] 5.22

[ask] Fill in pIC50 for record COc1cc(-c2cc(C(=O)Nc3cccc(C(C)=O)c3)c3cc(F)ccc3n2)cc(OC)c1OC
[reply] 5.43

[ask] Fill in pIC50 for record COc1cc(-c2cc(C(=O)NCC(=O)Nc3ccc(C(C)=O)cc3)c3cc(C)ccc3n2)cc(OC)c1OC
[reply] 5.41

[ask] Fill in pIC50 for record CCOC(=O)c1cccc(NC(=O)CNC(=O)c2cc(-c3cc(OC)c(OC)c(OC)c3)nc3ccc(C)cc23)c1
[reply] 5.48

[ask] Fill in pIC50 for record CCOC(=O)c1cccc(NC(=O)c2cc(-c3cc(OC)c(OC)c(OC)c3)nc3ccc(C)cc23)c1
[reply] 5.58

[ask] Fill in pIC50 for record CCOC(=O)c1cccc(NC(=O)c2cc(-c3cc(OC)c(OC)c(OC)c3)nc3c(Cl)cccc23)c1
[reply] 4.96

// provenance: PubChem BioAssay AID651642
